The reported numbers originate from patent US10670605B2.

- tgt: cysteines in MDA-MB-231 and Ramos cells (Homo sapiens)
- Sequence (O75521 39-394): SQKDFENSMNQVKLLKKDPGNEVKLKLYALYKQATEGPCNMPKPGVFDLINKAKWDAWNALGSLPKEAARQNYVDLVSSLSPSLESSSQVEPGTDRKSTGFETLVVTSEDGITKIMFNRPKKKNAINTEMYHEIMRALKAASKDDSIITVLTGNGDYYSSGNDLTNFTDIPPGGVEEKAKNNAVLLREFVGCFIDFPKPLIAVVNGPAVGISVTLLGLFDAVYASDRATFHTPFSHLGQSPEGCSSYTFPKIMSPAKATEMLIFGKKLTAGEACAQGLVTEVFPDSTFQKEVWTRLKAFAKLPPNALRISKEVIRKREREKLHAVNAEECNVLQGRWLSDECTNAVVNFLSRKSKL
- measurement_description: Competitive isoTOP-ABPP in situ (fragment-treated cells)
- Format: cell-based
- settings: 200 μM, insitu, 231
Reported isoTOP-ABPP ratio O75521_C380 is given for each of the following molecules.
// return just the number, without any unit appended

Some solved entries appear below for comparison.
Measured on cysteines in MDA-MB-231 and Ramos cells (Homo sapiens), Cc1ccc(C=C(C#N)C(=O)NCCN2CCOCC2)cc1 [compound 41] has a documented isoTOP-ABPP ratio O75521_C380 of 1.1

// isoTOP-ABPP ratio O75521_C380 (cysteines in MDA-MB-231 and Ramos cells (Homo sapiens)) for CC1CCc2ccccc2N1C(=O)CCl (stereo not shown) [compound 45] = 1.2

isoTOP-ABPP ratio O75521_C380 for cysteines in MDA-MB-231 and Ramos cells (Homo sapiens) with input O=C(CCl)NC12CC3CC(CC(C3)C1)C2 [compound 21] equals 1.8

Field isoTOP-ABPP ratio O75521_C380 (system: cysteines in MDA-MB-231 and Ramos cells (Homo sapiens)) for entry CC(C)CCOCCNC(=O)CCl [compound 27] = 1.6

Given the molecule O=C(CCl)NCCc1c[nH]c2ccccc12 [compound 13] and test system cysteines in MDA-MB-231 and Ramos cells (Homo sapiens), the measured isoTOP-ABPP ratio O75521_C380 is 1.0

Here O=C(CCl)Nc1cccc2ncccc12 [compound 51] was tested on cysteines in MDA-MB-231 and Ramos cells (Homo sapiens), and its isoTOP-ABPP ratio O75521_C380 came to 1.0

cysteines in MDA-MB-231 and Ramos cells (Homo sapiens) assay, molecule O=C(CCl)NC(=O)NC12CC3CC(CC(C3)C1)C2 [compound 12] , recorded isoTOP-ABPP ratio O75521_C380 = 1.9

Item: C=CC(=O)Nc1cc(F)c(N2CCN(C(=O)OC(C)(C)C)CC2)c(F)c1 [compound 38] | System: cysteines in MDA-MB-231 and Ramos cells (Homo sapiens) | isoTOP-ABPP ratio O75521_C380: 0.9

Further cases:
Given the molecule O=C(CCl)N1CCN(S(=O)(=O)c2ccccc2F)CC1 [compound 10] and test system cysteines in MDA-MB-231 and Ramos cells (Homo sapiens), the measured isoTOP-ABPP ratio O75521_C380 is 4.8

Per the reported cysteines in MDA-MB-231 and Ramos cells (Homo sapiens) data, COc1ccccc1OCCNC(=O)CCl [compound 28] has isoTOP-ABPP ratio O75521_C380 of 0.8

----------
Listed next: entries and their corresponding isoTOP-ABPP ratio P78417_C32.
- tgt: cysteines in MDA-MB-231 and Ramos cells (Homo sapiens)
- Sequence (P78417 1-241): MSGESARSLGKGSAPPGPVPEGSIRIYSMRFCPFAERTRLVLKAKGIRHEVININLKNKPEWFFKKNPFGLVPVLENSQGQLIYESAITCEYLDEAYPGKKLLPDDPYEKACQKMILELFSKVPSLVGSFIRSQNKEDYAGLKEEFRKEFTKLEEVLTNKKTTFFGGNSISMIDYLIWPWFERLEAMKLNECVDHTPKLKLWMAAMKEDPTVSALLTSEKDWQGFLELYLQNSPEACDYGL
- measurement_description: Competitive isoTOP-ABPP in situ (fragment-treated cells)
- Format: cell-based
- settings: 200 μM, insitu, 231
Give only the figure.

Sample records with isoTOP-ABPP ratio P78417_C32:
`CC(C)CCOCCNC(=O)CCl` has a reported isoTOP-ABPP ratio P78417_C32 of 20.0

Note to self: isoTOP-ABPP ratio P78417_C32 recorded for `O=C(CCl)NCCc1c[nH]c2ccccc12` was 20.0

Looking up CC1CCc2ccccc2N1C(=O)CCl (stereo not drawn) , I see its isoTOP-ABPP ratio P78417_C32 listed as 1.9

`O=C(CCl)NC(=O)NC12CC3CC(CC(C3)C1)C2` has a reported isoTOP-ABPP ratio P78417_C32 of 20.0

Field isoTOP-ABPP ratio P78417_C32 (entry `C=CC(=O)N(Cc1cccnc1)c1cc(C(F)(F)F)cc(C(F)(F)F)c1` ) reads 0.8

Continuing:
Summary for this compound, `O=C(CCl)N1CCN(S(=O)(=O)c2ccccc2F)CC1` : isoTOP-ABPP ratio P78417_C32 is 20.0

Quick note, isoTOP-ABPP ratio P78417_C32 for `COc1ccccc1OCCNC(=O)CCl` landed at 20.0

Lab note: measured isoTOP-ABPP ratio P78417_C32 of `C=CC(=O)Nc1cc(F)c(N2CCN(C(=O)OC(C)(C)C)CC2)c(F)c1` was 1.0

Just so you know, measured isoTOP-ABPP ratio P78417_C32 for `Cc1ccc(C=C(C#N)C(=O)NCCN2CCOCC2)cc1` came out at 0.3

----------
- tgt: UniProtKB P63244
- measurement_description: Competitive isoTOP-ABPP, cell lysates;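 note: Heavy/light ratio DMSO over fragment-treated so higher means more cysteine engagement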
- Format: binding
- settings: 500 μm, in-vitro_ramos_231
attribute_measured: isoTOP-ABPP reactivity profile ratio, P63244_C182
Please state the value as a number alone, without comment.

Record summary for `CCCN(C(=O)CCl)c1c(N)n(CCC)c(=O)[nH]c1=O` : reported isoTOP-ABPP reactivity profile ratio, P63244_C182 = 1.0

Measured isoTOP-ABPP reactivity profile ratio, P63244_C182, `O=C(CCl)N1CCc2cc(Br)ccc21` : 0.8

Per the records, this compound ( `C=CC(=O)N1CCC(Cc2ccccc2)CC1` ) has isoTOP-ABPP reactivity profile ratio, P63244_C182 equal to 0.9

New cases:
`O=C(CCl)Nc1ccc(-c2ccccc2)cc1` yielded isoTOP-ABPP reactivity profile ratio, P63244_C182 of 1.0

Item: `O=C(CCl)Nc1cccc2ncccc12` | isoTOP-ABPP reactivity profile ratio, P63244_C182: 0.7

----------
- tgt: PDIA6 C190 (Q15084) (Homo sapiens, UniProt Q15084)
- Sequence (Q15084 20-440): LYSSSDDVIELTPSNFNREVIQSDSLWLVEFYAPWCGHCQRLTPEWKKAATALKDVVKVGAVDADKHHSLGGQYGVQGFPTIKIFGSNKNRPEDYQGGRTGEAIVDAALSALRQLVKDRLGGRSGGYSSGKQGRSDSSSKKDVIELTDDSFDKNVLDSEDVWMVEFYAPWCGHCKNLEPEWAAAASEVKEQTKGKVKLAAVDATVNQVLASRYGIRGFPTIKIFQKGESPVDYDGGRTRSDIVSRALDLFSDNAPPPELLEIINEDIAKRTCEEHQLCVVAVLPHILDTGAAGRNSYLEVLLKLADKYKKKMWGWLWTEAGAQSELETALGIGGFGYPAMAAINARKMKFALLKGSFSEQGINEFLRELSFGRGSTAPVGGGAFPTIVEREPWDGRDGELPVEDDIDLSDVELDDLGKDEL
- measurement_description: Competitive isoTOP-ABPP, cell lysates
- Format: binding
- settings: 500 μm, in-vitro_ramos
attribute_measured: isoTOP-ABPP reactivity ratio, Q15084_C190

// field: isoTOP-ABPP reactivity ratio, Q15084_C190; key: `CC(C)(C)c1cc(NC(=O)CCl)on1` ; value = 20.0

Looking up `C=CC(=O)N(Cc1cccnc1)c1cc(C(F)(F)F)cc(C(F)(F)F)c1` , I see its isoTOP-ABPP reactivity ratio, Q15084_C190 listed as 1.2

// isoTOP-ABPP reactivity ratio, Q15084_C190 lookup, molecule = `C=CC(=O)N1CCC(c2noc3ccc(F)cc23)CC1` , result: 1.1

Continuing:
GET /value?item= `C=CC(=O)Nc1cc(C)c(Br)cc1C` &field=isoTOP-ABPP reactivity ratio, Q15084_C190 returns 1.7

----------
- tgt: cysteines in MDA-MB-231 and Ramos cells (Homo sapiens)
- Sequence (Q29RF7 1-1337): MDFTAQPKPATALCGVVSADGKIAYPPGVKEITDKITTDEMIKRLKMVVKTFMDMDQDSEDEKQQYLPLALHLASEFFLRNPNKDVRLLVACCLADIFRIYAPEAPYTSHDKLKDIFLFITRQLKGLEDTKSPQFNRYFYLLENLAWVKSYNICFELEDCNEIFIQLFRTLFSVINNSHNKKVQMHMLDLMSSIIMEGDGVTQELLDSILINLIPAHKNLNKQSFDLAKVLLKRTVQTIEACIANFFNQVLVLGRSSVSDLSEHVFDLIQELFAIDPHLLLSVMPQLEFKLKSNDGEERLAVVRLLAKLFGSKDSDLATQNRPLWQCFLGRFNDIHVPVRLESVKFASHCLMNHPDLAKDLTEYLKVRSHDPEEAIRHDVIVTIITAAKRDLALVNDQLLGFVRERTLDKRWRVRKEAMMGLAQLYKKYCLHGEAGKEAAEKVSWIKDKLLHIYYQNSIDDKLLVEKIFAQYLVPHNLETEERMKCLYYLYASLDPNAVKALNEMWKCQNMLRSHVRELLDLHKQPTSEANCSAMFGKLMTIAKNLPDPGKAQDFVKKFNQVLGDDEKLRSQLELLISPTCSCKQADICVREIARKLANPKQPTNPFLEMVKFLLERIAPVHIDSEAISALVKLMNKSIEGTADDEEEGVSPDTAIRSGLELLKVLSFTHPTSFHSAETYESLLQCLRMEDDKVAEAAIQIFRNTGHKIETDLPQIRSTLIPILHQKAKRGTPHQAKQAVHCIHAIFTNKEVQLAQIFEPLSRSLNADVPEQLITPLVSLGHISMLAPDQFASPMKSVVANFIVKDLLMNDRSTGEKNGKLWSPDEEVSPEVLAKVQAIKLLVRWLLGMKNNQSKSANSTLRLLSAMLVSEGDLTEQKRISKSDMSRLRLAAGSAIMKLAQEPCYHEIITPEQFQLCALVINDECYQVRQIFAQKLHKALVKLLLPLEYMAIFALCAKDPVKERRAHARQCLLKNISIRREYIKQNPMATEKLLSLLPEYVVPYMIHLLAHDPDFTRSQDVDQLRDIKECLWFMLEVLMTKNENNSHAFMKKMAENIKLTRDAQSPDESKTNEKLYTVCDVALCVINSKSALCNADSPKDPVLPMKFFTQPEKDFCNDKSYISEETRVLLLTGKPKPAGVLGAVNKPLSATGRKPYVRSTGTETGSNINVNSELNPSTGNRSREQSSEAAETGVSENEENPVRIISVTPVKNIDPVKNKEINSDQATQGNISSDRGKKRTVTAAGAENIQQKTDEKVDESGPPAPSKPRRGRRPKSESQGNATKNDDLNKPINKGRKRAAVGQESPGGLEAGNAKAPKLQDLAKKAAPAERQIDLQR
- measurement_description: Competitive isoTOP-ABPP in situ (fragment-treated cells)
- Assay type: cell-based
- settings: 200 μM, insitu, 231
Recorded measurements of isoTOP-ABPP ratio Q29RF7_C242, one per entry
In your answer, state the number alone without any accompanying words.

Field: example entries. Status: answers known.
# isoTOP-ABPP ratio Q29RF7_C242 of `CC(C)CCOCCNC(=O)CCl` = 0.9

Lab note: `COc1ccccc1OCCNC(=O)CCl` gave isoTOP-ABPP ratio Q29RF7_C242 of 1.0

`O=C(CCl)Nc1cccc2ncccc12` yielded isoTOP-ABPP ratio Q29RF7_C242 of 1.8

Next:
Kindly note the recorded isoTOP-ABPP ratio Q29RF7_C242 for `C=CC(=O)Nc1cc(F)c(N2CCN(C(=O)OC(C)(C)C)CC2)c(F)c1` , which is 1.0
